Sourced from patent US20240116985A1

We begin with a simple list: items and their reported IC50.
molecular target: Bcat-Halo (UniProt P35222); experiment: NanoBRET Abs IC50 in HEK293 cells; competitor TCF4-Luc on Bcat-Halo
Sequence (P35222 whole entry): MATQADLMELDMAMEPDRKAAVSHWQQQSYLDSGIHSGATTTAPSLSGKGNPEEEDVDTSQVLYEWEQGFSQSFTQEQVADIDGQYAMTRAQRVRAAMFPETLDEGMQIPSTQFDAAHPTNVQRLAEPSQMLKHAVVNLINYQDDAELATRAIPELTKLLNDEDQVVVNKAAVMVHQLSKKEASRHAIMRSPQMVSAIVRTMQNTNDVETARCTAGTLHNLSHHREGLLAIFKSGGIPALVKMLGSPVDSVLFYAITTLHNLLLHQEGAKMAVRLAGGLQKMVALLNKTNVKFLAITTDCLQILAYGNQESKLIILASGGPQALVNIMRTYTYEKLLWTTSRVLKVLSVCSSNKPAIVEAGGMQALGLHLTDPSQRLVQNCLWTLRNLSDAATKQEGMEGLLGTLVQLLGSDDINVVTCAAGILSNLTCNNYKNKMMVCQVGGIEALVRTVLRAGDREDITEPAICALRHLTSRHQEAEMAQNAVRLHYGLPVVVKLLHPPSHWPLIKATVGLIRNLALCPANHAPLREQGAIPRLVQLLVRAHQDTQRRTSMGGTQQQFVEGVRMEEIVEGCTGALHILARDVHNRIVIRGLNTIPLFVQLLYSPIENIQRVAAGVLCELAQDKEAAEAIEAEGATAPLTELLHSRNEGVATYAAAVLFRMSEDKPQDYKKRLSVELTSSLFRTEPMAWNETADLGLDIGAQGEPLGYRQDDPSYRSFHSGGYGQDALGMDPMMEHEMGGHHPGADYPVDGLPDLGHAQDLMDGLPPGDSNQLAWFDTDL
Starred links: 1 amine or outer side, 2 acyl side, 3 side chain; linkers in the order of their positions; H or OH if unused. Positions of bridges follow the written chain, without caps; N, C: chain ends. Non-standard residues stand in square brackets, D forms with d. Primed or numbered codes have the meaning given here. PyrS2″ = (S)-3-amino-1-((pent-4-en-1-yloxy)carbonyl)pyrrolidine-3-carboxylic acid (stapling residue), C=CCCCOC(=O)N1CC[C@@](N[*:1])(C(=O)[*:2])C1; B5(4) = 2,2-bis(4-pentenyl)glycine = 2-amino-2-(pent-4-en-1-yl)hept-6-enoic acid (stitching residue), C=CCCCC(CCCC=C)(N[*:1])C(=O)[*:2]; Phe(2-Cl) = N[C@@H](Cc1ccccc1Cl)C(=O)O; Bta = N[C@@H](Cc1csc2ccccc12)C(=O)O; αAllylPro = C=CC[C@@]1(C(=O)O)CCCN1; Cha = N[C@@H](CC1CCCCC1)C(=O)O
The reply should contain only the number, in µM.

> print(dat)
                                     binder  value.kind  measure.unit  value.measured
1  Ac-[αAllylPro]D[Cha][B5(4)]DDAAFL[PyrS2″][Phe(2-Cl)][Bta]T-NH2 (staple 1-4, 4-11) [I-1139]        IC50            µM              18

Inquiry: Form field: reported IC50 of Ac-[αAllylPro]D[Cha][B5(4)]DDALFS[PyrS2″][Phe(2-Cl)][Bta]Q-NH2 (staple 1-4, 4-11) [I-1148]
Reply text: 21.5

Inquiry: Form field: reported IC50 of Ac-[αAllylPro]D[Cha][B5(4)]DDAAFL[PyrS2″][Phe(2-Cl)][Bta][dT]-NH2 (staple 1-4, 4-11) [I-1140]
Reply text: 32.5
